# pIC50 against MAPK1(ERK2) enzyme (Homo sapiens, UniProt P28482), merged from multiple literature sources
pIC50: −log10 of the molar value.

For orientation, consider the following solved cases.
compound	system.tested	reported.result
C[C@H]1Cn2cc(-c3ccnc(Nc4ccnn4C)n3)cc2-c2nnc(C(F)(F)c3ccccc3Cl)n21	MAPK1(ERK2) enzyme (Homo sapiens, UniProt P28482)	8.00 to 8.30
C[C@@H](NC(=O)c1nc2cc3c(-c4ccncc4)n[nH]c3cc2[nH]1)c1cccc(Br)c1	MAPK1(ERK2) enzyme (Homo sapiens, UniProt P28482)	9.29
COc1ncc(-c2n[nH]c3cc4c(cc23)CN([C@@H]2CCCN(Cc3c(F)cccc3OC)C2)C(=O)N4)cn1	MAPK1(ERK2) enzyme (Homo sapiens, UniProt P28482)	> 6.30
Cc1cnc(Nc2ccnn2C)cc1-c1cc2n(c1)C[C@H](CF)n1c-2nnc1C(F)(F)c1ncccc1Cl	MAPK1(ERK2) enzyme (Homo sapiens, UniProt P28482)	≥ 8.30
C[C@@H]1COCCN1c1cnc(N)c(-c2ccc(C(=O)N[C@H](CO)c3ccccc3)c(F)c2)c1	MAPK1(ERK2) enzyme (Homo sapiens, UniProt P28482)	8.02

// assay MAPK1(ERK2) enzyme (Homo sapiens, UniProt P28482), entry CC(=O)Nc1ccc(C(=O)Nc2sc(Nc3ccccc3)nc2C(N)=O)cc1 , pIC50 value = < 6.52

Record for Cn1nccc1Nc1nccc(-c2cc3n(c2)CCCn2c(CSc4ccccc4F)nnc2-3)n1 under target or system MAPK1(ERK2) enzyme (Homo sapiens, UniProt P28482): pIC50 reported as ≥ 8.30

Assay MAPK1(ERK2) enzyme (Homo sapiens, UniProt P28482), sample Cn1nccc1Nc1cc(-c2cc3n(c2)CC(C)(C)n2c-3nnc2C(F)(F)C(F)F)c(Cl)cn1 , pIC50 read: 8.00 to 8.30

Assay MAPK1(ERK2) enzyme (Homo sapiens, UniProt P28482), sample Cc1cnc(Nc2ccnn2C)nc1-c1cc2n(c1)C[C@H](CF)n1c-2nnc1C(F)(F)c1ccc(F)cc1F , pIC50 read: 8.00 to 8.30

// compound C[C@@H](OC(=O)c1nc2cc3c(-c4ccncc4)n[nH]c3cc2[nH]1)c1ccccc1 , assay MAPK1(ERK2) enzyme (Homo sapiens, UniProt P28482), pIC50 value: 9.12

Short answer on MAPK1(ERK2) enzyme (Homo sapiens, UniProt P28482) for Cc1cc(-c2cc(C3CCOCC3)cnc2N)ccc1C(=O)N[C@H](CO)c1ccccc1 , pIC50: 8.74

Given the compound CCNC(=O)Nc1ccc2ncc(-c3cc(Cl)c(O)c(OC)c3)nc2n1 and test system MAPK1(ERK2) enzyme (Homo sapiens, UniProt P28482), the measured pIC50 is 6.86

Bench note, MAPK1(ERK2) enzyme (Homo sapiens, UniProt P28482): entry CC[C@@H](Nc1nc(NCc2ccccn2)c2ncn(C(C)C)c2n1)C(O)C(C)(C)C (mixture of isomers) , its pIC50 = < 3.70

====

# merged literature set: pIC50 with UniProtKB P28482
pIC50: −log10 of the molar value.

Some molecules with recorded pIC50:
molecule	system.tested	pIC50
C[C@@H](NC(=O)c1nc2cc3c(-c4ccncc4)n[nH]c3c(Cl)c2[nH]1)c1ccccc1	UniProtKB P28482	8.77
COc1cc(F)cc([C@@H](CO)NC(=O)[C@@H](C)N2CCc3sc(-c4ccnc(Nc5ccnn5C)n4)cc3C2=O)c1	UniProtKB P28482	8.52

Kindly note: UniProtKB P28482, Cc1cc(-c2n[nH]c3cc4c(cc23)CN([C@@H]2CN(C(C)C)C[C@H]2c2ccccc2)C(=O)N4)ccn1 (racemic) , pIC50 value reported: > 6.30

pIC50 for UniProtKB P28482 with input Cc1cc(-c2n[nH]c3cc4c(cc23)CN(Cc2cccc(Cl)c2)C(=O)N4)ccn1 equals > 6.30

Lab note: molecule Cc1cc(-c2n[nH]c3cc4c(cc23)CN([C@@H]2CCCN(Cc3ccc(F)cc3)C2)C(=O)N4)ccn1 tested on UniProtKB P28482; recorded pIC50 was > 6.30

pIC50 of Cn1nccc1Nc1cc(-c2cc3n(c2)C[C@H](CF)n2c-3nnc2C(F)(F)n2cc(Cl)cn2)c(F)cn1 , assay on UniProtKB P28482, is ≥ 8.30

Item COC[C@H]1Cn2cc(-c3nc(Nc4ccnn4C)ncc3C)nc2C(=O)N1Cc1cc(F)cc(F)c1 ; assay system UniProtKB P28482; pIC50 reported as 8.96

For the molecule Nc1ncc(C2CCOCC2)cc1-c1ncc(C(=O)N[C@H](CO)c2ccccc2)cn1 , the measured pIC50 on UniProtKB P28482 was 7.31

====

We begin with IC50 values for MAPK1(ERK2) enzyme (Homo sapiens), as collected from the published literature.
Return type: number; implicit unit nM.

compound	unit.name	IC50
Cc1cc(Nc2ncc(C)c(-c3nc4c(s3)C(C)(C)N(Cc3cccc(F)c3)C4=O)n2)n(C)n1	nM	0.14
COC[C@H]1Cn2cc(-c3nc(Nc4ccnn4C)ncc3C)nc2C(=O)N1Cc1ccc(F)c(F)c1	nM	0.6

Field IC50 (MAPK1(ERK2) enzyme (Homo sapiens)), entry CC(CCCc1ccccc1)NC(=O)Nc1ccc2ncc(-c3cnn(C)c3)nc2n1 (stereo not shown) : 2

====

Reported pIC50 on UniProtKB P28482 for assorted compounds, compiled from publications.
Please note pIC50 is a logarithmic value: minus log10 of concentration in mol/L. Answer with that number alone.

Consider the worked cases shown below.
smiles.input	system.tested	reported.result
COc1ccc(CNC(=O)c2nc3cc4c(-c5ccncc5)n[nH]c4cc3[nH]2)cc1OC	UniProtKB P28482	8.40
CCNC(=O)Nc1ccc2ncc(Nc3cc(OC)cc(OC)c3)nc2n1	UniProtKB P28482	4.80
CCNC(=O)Nc1ccc2ncc(Nc3cnccn3)nc2n1	UniProtKB P28482	5.77

# input for lookup
# value of pIC50, UniProtKB P28482, item CNC[C@H](c1cccc(Cl)c1)N1Cc2cc(-c3nc(Nc4ccnn4C)ncc3C)cn2C1=O = 8.70

====

Assembled from different publications: IC50 for MAPK1(ERK2) enzyme (Homo sapiens).
State just the number; it will be interpreted in nM.

Solved cases (5 shown):
compound	system.tested	unit.name	IC50
Nc1ncc(C2CCOCC2)cc1-c1ccc(C(=O)N[C@H](CO)c2ccccc2)cc1F	MAPK1(ERK2) enzyme (Homo sapiens)	nM	17.2
Cn1cc(-c2cnc3ccc(NC(=O)NCCCC(C)(C)c4ccccc4)nc3n2)cn1	MAPK1(ERK2) enzyme (Homo sapiens)	nM	3
CCNC(=O)Nc1ccc2ncc(-c3ccc(O)c(OC)c3)nc2n1.Cc1ccc(S(=O)(=O)O)cc1	MAPK1(ERK2) enzyme (Homo sapiens)	nM	203
O=C(CNC(=O)c1nc2cc3c(-c4ccncc4)n[nH]c3cc2[nH]1)c1ccccc1	MAPK1(ERK2) enzyme (Homo sapiens)	nM	0.24
Cc1cc(C(=O)N[C@H](CO)c2ccccc2)ccc1-c1cc(C2CCOCC2)cnc1N	MAPK1(ERK2) enzyme (Homo sapiens)	nM	574

Entry under test: Cc1cccc([C@@H](CO)NC(=O)C(C)N2CCn3cc(-c4nc(NC5CCOCC5)ncc4Cl)nc3C2=O)c1 (stereo partly shown) . Its IC50 was 3.6

# IC50 (compound: CC[C@H](Nc1nc(NCc2ccccn2)c2ncn(C(C)C)c2n1)[C@@H](C)O ) is 77000

IC50 recorded for this compound, Cc1cnccc1-c1cnc(N)c(-c2ccc(C(=O)N[C@H](CO)c3ccccc3)cc2)c1 , is 2.13

// C[C@H]1Cn2cc(-c3ccnc(Nc4ccnn4C)n3)nc2C(=O)N1Cc1ccc(F)c(Cl)c1 : IC50 value = 0.5

IC50 reported for this compound COc1cc(F)cc([C@@H](CO)NC(=O)[C@@H](C)N2CCc3sc(-c4nc(N[C@@H](C)CO)ncc4C)cc3C2=O)c1 : 2

Looking up CC[C@H](Nc1nc(NCc2ccccn2)c2ncn(C(C)C)c2n1)C(O)C(C)(C)C (mixture of isomers) , I see its IC50 listed as 137000

For CCNC(=O)Nc1ccc2ncc(Nc3ccc(C)c(OC)c3)nc2n1 the compound record lists IC50 as 26900

IC50 measured on Cc1cccc(CN2CCn3cc(-c4ccnc(Nc5ccnn5C)n4)nc3C2=O)n1 = 17.4

Form: compound = Cn1nccc1Nc1nccc(-c2cc3n(c2)C(=O)N([C@H](CO)c2ccc(Cl)c(F)c2)C3)n1 ; IC50 = 18

Value of measured IC50 for the entry C[C@H](CNC(=O)c1nc2cc3c(-c4ccncc4)n[nH]c3cc2[nH]1)c1ccccc1 : 0.69

====

Across several publications, the following pIC50 results were reported for MAPK1(ERK2) enzyme (Homo sapiens).
pIC50: −log10 of the molar value.

Completed entries (count: 4):
compound	reported.result
Cc1cnc(Nc2ccnn2C)cc1-c1cc2n(c1)C(C)CCn1c-2nnc1C1(C(F)(F)F)CCC1 (stereo not drawn)	≥ 8.30
Cn1cc(-c2n[nH]c3cc4c(cc23)CN([C@@H]2CCCN(Cc3ccccc3)C2)C(=O)N4)cn1	> 6.30
Cn1nccc1Nc1cc(-c2cc3n(c2)CC(F)(F)Cn2c-3nnc2C2(C#N)CCC2)c(Cl)cn1	≥ 8.30
Nc1ncc(C2CCOCC2)cc1-c1ccc(C(=O)N[C@H](CO)c2ccccc2)cc1	8.44

get_value(item= CC[C@H]1Cn2cc(-c3nc(Nc4ccnn4C)ncc3C)cc2-c2nnc(C(F)(F)c3ccccc3F)n21 , readout=pIC50) returns < 8.00

pIC50 measured on Cc1ncccc1C(F)(F)c1nnc2n1[C@@H](CF)Cn1cc(-c3cc(Nc4ccnn4C)ncc3Cl)cc1-2 = < 8.00

Summary for this compound, C[C@@H](NC(=O)c1nc2cc3c(-c4ccnc(F)c4)n[nH]c3cc2[nH]1)c1ccccc1 : pIC50 is 9.74

# pIC50 (compound: Cn1nccc1Nc1cc(-c2cc3n(c2)CC(F)(F)Cn2c-3nnc2C(F)(F)C(F)F)c(Cl)cn1 ) is 8.00 to 8.30

Sure, the documented pIC50 for COc1cc(F)cc([C@@H](CO)NC(=O)[C@@H](C)N2CCn3cc(-c4nc(N[C@@H](C)CO)ncc4Cl)cc3C2=O)c1 is 7.54

So, Cn1nccc1Nc1cc(-c2cc3n(c2)C(C(F)(F)F)Cn2c-3nnc2C(F)(F)C(F)F)c(Cl)cn1 (stereo not drawn) ? Its pIC50 was < 8.00

Reported pIC50 of Cc1nonc1C(F)(F)c1nnc2n1[C@@H](C)Cn1cc(-c3cc(Nc4ccnn4C)ncc3Cl)cc1-2 : 8.00 to 8.30

So for [2H]c1c([2H])c([2H])c(C([2H])([2H])N2CCC[C@@H](N3Cc4cc5c(-c6ccnc(C)c6)n[nH]c5cc4NC3=O)C2)c([2H])c1[2H] , the logged pIC50 turned out to be > 6.30

Consider Cc1cnc(Nc2ccnn2C)nc1-c1cc2n(c1)CCn1c-2nnc1C(F)(F)c1ccccc1F . Its measured pIC50 is ≥ 8.30

Entry Nc1ncc(C2CCNCC2)cc1-c1ccc(C(=O)N[C@H](CO)c2ccccc2)c(F)c1 — recorded pIC50 = 6.72

Lab book: pIC50 of Cc1cnccc1-c1cnc(N)c(-c2ccc(C(=O)N[C@H](CO)c3ccccc3)c(F)c2)n1 noted as 9.58

Value of measured pIC50 for the entry Cc1cnc(Nc2ccnn2C)cc1-c1cc2n(c1)C[C@H](CF)n1c-2nnc1C(F)(F)Oc1ccccc1F : < 8.00

response.value for Cc1cccc([C@@H](CO)N2Cc3cc(-c4ccnc(Nc5ccnn5C)n4)cn3C2=O)c1 (field: pIC50) = 8.30

Noted for Cc1nc(N)sc1-c1ccnc(Nc2cccc(O)c2)n1 : its pIC50 reads 4.82

Summary for this compound, Cn1nccc1Nc1ncc(Cl)c(-c2cc3n(c2)C(=O)N([C@H](CO)c2cccc(Cl)c2)C3)n1 : pIC50 is 8.52
